- target system: T1, full-length Ctf19-Mcm21 (K. lactis) (Kluyveromyces lactis, UniProt Q6CRN7 1-270; Q6CVQ9 1-293)
- T1 construct: Ctf19 of Kluyveromyces lactis; Mcm21 of Kluyveromyces lactis; for microscale thermophoresis it was labelled on lysine side chains with the red dye NT-647-NHS; also stands for the Ctf19-Mcm21 subassembly of COMA in nanoflow mass spectra; source: E. coli BL21 Rosetta 2(DE3)pLysS, co-expressed, purified
- T1 sequence (looked up) 1: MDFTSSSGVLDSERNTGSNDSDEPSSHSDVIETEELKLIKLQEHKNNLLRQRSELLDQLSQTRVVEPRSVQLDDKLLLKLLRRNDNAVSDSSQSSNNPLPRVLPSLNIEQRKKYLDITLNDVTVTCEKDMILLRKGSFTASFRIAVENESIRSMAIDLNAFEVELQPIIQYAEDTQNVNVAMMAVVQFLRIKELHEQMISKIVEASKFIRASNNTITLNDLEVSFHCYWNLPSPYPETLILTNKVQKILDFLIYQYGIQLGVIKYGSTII
- T1 sequence (looked up) 2: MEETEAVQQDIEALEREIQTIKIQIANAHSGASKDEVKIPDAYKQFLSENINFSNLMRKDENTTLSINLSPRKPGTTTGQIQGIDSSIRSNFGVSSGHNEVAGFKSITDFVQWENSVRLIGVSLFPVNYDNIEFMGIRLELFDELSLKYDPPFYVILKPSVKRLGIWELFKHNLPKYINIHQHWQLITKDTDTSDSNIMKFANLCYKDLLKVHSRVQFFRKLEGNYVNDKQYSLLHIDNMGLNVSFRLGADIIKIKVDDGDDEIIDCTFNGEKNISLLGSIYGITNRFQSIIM
- test: MST; Ctf19-Mcm21 labelled with NT-647-NHS on lysines, ~27 nM; dilution series of peptide; 22-25°C; ITC/MST buffer; three dilution series
- measurement parameters: both partners purified

binder: SNEIYQQDKIDFNLKLKTDF (peptide, UniProt Q6CJY0 318-337, looked up, also called Okp1-derived peptide; source: synthetic peptide (Protein Chemistry core facility, IMP, Vienna)) [Okp1-derived synthetic peptide with the Ctf19-Mcm21 binding motif (Okp1 residues 318-337)]
Kd: ~80 nM
